Molecular target: T1, 4H1558-AA
T1 chain: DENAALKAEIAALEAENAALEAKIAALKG
Experiment: two-hybrid library CCmax;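 further: natural log of median RNA to DNA barcode read ratio; higher means stronger binding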
Conditions: mean of both orientations
QUANTITY_KIND: interaction score

BINDER	interaction score
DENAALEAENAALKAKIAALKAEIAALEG [4H1257-AA]	-0.232
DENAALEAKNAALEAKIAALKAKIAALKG [4H1454-AA]	-0.946
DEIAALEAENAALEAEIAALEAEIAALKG [4H130-AA]	-0.952

[A] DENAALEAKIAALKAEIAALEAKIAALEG [4H1349-AA]
[B] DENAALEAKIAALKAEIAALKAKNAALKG [4H1360-AA]
[C] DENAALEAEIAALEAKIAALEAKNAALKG [4H1064-AA]
Q: Could you please order the items by interaction score, going from the lowest number to the highest? Ranked list of labels, please, in the requested order.
Ans: C, B, A
(C: -1.61, B: -0.811, A: -0.218)
